# measured target: his-labeled human IL-13 (immunogen A) (human) (UniProt P35225)
# assay protocol: cell-based or functional assay
Listed next: entries and their corresponding VCAM-1 fluorescence intensity, HUVEC + IL-13 0.5 ng/mL + TNFα; antibody at 13.3 nM.
reported metric: VCAM-1 fluorescence intensity, HUVEC + IL-13 0.5 ng/mL + TNFα; antibody at 13.3 nM

{"columns": ["binder", "quantitative readout"],
 "data": [
  ["c28A2E11 (mouse-human chimeric IL-13 antibody) (antibody, V domains shown) VH: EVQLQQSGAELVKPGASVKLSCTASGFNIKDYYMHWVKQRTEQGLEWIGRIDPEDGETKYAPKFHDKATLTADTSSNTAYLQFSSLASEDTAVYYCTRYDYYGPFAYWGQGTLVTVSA VL: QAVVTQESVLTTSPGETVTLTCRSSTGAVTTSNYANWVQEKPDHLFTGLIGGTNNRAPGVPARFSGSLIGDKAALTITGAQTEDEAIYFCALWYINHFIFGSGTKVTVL", 207],
  ["c35E2C3 (mouse-human chimeric IL-13 antibody) (antibody, V domains shown) VH: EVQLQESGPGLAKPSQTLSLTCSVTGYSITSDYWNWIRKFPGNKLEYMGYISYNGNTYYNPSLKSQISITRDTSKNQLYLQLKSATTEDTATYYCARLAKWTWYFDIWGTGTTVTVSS VL: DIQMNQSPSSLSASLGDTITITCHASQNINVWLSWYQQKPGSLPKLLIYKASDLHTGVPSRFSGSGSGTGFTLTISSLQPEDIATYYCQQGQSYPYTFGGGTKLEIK", 165],
  ["c70F10A10 (mouse-human chimeric IL-13 antibody) (antibody, V domains shown) VH: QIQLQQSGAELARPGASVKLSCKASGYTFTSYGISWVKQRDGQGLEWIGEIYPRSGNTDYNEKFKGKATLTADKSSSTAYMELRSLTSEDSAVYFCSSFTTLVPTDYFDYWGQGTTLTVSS VL: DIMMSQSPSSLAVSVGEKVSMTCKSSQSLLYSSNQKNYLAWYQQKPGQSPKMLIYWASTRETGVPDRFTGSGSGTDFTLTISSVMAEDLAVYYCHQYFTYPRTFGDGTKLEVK", 223],
  ["c29D9H8 (mouse-human chimeric IL-13 antibody) (antibody, V domains shown) VH: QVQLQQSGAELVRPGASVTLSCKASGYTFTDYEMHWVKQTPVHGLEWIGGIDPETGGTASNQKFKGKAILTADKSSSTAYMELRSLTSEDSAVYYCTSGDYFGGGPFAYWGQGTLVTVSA VL: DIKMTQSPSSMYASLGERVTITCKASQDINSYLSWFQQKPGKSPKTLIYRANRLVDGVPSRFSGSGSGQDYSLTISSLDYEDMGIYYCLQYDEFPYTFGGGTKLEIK", 186]
]}
